- protocol: in vivo
- Set-up: species or system SCID mice
- conditions: mouse, in vivo, iv, Minimal Leukemia Burden; read-out: Linear Binding Constant (R), Spleen
value kind: Kp
Kindly provide the number alone.

molecule O=c1c(-c2ccc(O)cc2)coc2cc(O)cc(O)c12 [GEN, 5,7,4'-trihydroxyisoflavone] , Kp observed: 0.04

---

- protocol: in vivo
- Set-up: species or system SCID mice
- conditions: mouse, in vivo, iv, Minimal Leukemia Burden; read-out: Linear Binding Constant (R), Skin
value kind: Kp
Kindly provide the number alone.

compound O=c1c(-c2ccc(O)cc2)coc2cc(O)cc(O)c12 [GEN, 5,7,4'-trihydroxyisoflavone] , Kp observed: 0.208
